# experimental.target: PI3K alpha (Homo sapiens)
# Sequence (P42336 whole entry, species assumed): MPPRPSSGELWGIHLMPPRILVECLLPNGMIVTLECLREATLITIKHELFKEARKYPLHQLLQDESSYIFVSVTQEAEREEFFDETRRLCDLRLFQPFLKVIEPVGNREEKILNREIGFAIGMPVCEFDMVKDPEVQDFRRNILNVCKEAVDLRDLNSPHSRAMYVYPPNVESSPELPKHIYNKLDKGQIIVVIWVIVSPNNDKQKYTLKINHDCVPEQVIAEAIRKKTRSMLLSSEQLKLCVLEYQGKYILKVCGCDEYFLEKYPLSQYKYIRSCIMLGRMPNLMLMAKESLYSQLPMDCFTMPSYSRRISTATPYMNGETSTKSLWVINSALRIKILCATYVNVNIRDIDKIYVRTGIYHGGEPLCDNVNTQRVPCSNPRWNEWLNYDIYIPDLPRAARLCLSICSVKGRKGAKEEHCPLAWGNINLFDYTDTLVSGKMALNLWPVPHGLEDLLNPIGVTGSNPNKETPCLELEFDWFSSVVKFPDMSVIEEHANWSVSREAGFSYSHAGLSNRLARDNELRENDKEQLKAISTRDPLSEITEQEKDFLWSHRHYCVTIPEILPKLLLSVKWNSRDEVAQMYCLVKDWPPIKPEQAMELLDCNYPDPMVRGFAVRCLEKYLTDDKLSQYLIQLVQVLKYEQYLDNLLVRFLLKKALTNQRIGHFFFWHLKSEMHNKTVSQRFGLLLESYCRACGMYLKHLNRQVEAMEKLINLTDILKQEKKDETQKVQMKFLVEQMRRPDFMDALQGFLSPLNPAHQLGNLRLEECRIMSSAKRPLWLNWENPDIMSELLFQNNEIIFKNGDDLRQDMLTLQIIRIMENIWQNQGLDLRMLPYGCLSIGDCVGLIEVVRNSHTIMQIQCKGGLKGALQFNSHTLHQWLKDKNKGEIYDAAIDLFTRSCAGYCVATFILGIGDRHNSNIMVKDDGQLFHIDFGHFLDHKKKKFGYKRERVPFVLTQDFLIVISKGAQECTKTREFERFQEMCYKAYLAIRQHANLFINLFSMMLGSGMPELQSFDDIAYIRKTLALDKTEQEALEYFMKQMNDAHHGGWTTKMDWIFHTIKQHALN
# Sequence (P27986 whole entry partner, species assumed): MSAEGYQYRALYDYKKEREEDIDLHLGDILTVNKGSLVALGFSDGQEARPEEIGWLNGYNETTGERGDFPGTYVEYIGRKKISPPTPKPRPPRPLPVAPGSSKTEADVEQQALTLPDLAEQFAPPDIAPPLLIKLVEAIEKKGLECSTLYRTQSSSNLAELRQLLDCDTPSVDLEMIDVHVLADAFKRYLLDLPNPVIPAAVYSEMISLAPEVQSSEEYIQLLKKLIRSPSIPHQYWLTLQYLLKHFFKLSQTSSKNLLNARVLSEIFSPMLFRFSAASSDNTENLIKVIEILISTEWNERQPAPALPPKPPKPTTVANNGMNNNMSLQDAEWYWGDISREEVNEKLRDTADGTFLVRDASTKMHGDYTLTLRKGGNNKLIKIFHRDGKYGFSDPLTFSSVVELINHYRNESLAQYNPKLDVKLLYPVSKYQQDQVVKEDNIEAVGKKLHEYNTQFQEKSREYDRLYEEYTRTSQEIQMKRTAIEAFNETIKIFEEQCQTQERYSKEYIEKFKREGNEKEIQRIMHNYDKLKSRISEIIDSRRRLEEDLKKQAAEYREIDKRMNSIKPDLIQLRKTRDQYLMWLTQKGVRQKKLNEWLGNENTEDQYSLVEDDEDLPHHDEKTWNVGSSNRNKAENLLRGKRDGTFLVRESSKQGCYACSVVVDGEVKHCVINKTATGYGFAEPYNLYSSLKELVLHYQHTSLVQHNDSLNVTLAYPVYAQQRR
readout.name: IC50

// known answers, use as guide
                                   compound         result
0  CC(C)(Nc1nc(N2CCOCC2)nc(-n2c(C(F)F)nc3ccccc32)n1)c1ccc(Cl)cc1 [Compound A8]       > 0.5 µM
1  CC(C)(Cc1ccccc1-c1ccncc1)Nc1nc(N2CCOCC2)nc(-n2c(C(F)F)nc3ccccc32)n1 [Compound A33]  0.2 to 0.5 µM

Output IC50 of CC(C)(Cc1cccc(F)c1)Nc1nc(N2CCOCC2)nc(-n2c(C(F)F)nc3ccccc32)n1 [Compound A39]
> 0.5 µM

Specify reported IC50 for the compound shown: CC(C)(Nc1nc(N2CCOCC2)nc(-n2c(C(F)F)nc3ccccc32)n1)C1(c2ccccc2)CC1 [Compound A30]
> 0.5 µM

Identify the reported IC50 for the following entry. CN1CCC(c2ccccc2CC(C)(C)Nc2nc(N3CCOCC3)nc(-n3c(C(F)F)nc4ccccc43)n2)CC1 [Compound A35]
> 0.5 µM

Fill in IC50 for record CC(C)(Cc1cccc(Cl)c1)Nc1nc(N2CCOCC2)nc(-n2c(C(F)F)nc3ccccc32)n1 [Compound A20]
> 0.5 µM
